- Assayed target: Androgen Receptor of Rat's Prostate (Rattus norvegicus, UniProt P15207)
- Construct: Their prostates were removed, weighed and homogenized at 0° C; from tissue; host or cells: prostate cytosol (105,000 g supernatant) of castrated male Sprague-Dawley rats
- Sequence (P15207 whole entry S389L): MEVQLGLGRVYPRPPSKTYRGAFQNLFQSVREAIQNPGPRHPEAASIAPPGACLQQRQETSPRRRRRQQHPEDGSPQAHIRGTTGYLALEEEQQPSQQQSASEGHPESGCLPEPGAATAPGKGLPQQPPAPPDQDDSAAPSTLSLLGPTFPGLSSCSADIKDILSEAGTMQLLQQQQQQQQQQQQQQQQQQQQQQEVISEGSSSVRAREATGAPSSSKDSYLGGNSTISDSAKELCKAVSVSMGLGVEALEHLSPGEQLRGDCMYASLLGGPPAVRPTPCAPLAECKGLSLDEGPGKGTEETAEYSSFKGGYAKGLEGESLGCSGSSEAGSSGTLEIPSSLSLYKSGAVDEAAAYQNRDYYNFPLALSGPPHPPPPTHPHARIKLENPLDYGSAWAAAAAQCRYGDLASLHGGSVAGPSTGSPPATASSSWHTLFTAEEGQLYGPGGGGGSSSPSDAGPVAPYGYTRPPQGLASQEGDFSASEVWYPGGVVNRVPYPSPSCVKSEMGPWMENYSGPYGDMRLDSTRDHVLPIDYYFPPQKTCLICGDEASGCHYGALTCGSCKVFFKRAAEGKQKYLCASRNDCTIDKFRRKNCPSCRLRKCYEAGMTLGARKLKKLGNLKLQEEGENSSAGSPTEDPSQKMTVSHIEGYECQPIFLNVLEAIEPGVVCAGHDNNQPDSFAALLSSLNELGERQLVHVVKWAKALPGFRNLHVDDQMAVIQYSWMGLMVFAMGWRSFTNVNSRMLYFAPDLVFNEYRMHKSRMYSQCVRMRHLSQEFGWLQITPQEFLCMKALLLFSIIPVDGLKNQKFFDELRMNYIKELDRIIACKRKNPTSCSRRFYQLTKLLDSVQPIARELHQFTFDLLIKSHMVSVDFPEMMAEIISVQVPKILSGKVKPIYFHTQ
- Method summary: Relative affinity of the bond, androgen receptor (tritiated testosterone displacement)
- Type: binding
- Particulars: incubation 25 H at 0° C.; RAB=100(CH)/(CX)
Readout: Relative affinity of the bond (RAB), Androgen, 25 H

Please review the entries below; each comes with its answer.
| Compound | Reading |
| --- | --- |
| CCCCN(C)C(=O)CCCCCCCCCC[C@H]1C[C@]2(C)[C@@H](O)CC[C@H]2[C@@H]2CCc3cc(O)ccc3[C@@H]12 [Example 13] | 0.12 |
| CC(C)N(C)C(=O)CCCCCCCCCC[C@H]1C[C@]2(C)[C@@H](O)CC[C@H]2[C@@H]2CCc3cc(O)ccc3[C@@H]12 [Example 16] | 0.4 |
| CC#C[C@]1(O)CC[C@H]2[C@@H]3CCC4=CC(=O)CCC4=C3[C@@H](CCCCCCCCCCC(=O)NCCCC)C[C@@]21C [Example 22] | 0 |
| CN(C)CCN(C)C(=O)CCCCCCCCCC[C@H]1C[C@]2(C)[C@@H](O)CC[C@H]2[C@@H]2CCC3=CC(=O)CCC3=C12 [Example 19] | 11 |

(P) CN(Cc1ccccc1)C(=O)CCCCCCCCCC[C@H]1C[C@]2(C)[C@@H](O)CC[C@H]2[C@@H]2CCC3=CC(=O)CCC3=C12 [Example 17]
(Q) CCCCN(C)C(=O)CCCCCCCCCCC[C@H]1C[C@]2(C)[C@@H](O)CC[C@H]2[C@@H]2CCc3cc(O)ccc3[C@@H]12 [Example 24]
Compare P and Q by numeric Relative affinity of the bond (RAB), Androgen, 25 H and name the larger one. Your answer should be the label of the entry you select.
P
(P: 1.2, Q: 0.4)

* * *

- Assayed target: Glucocorticoid Receptor of Rat Thymus (Rattus norvegicus)
- Construct: The thymuses were removed and homogenized at 0° C; from tissue; host or cells: thymus cytosol (105,000 g supernatant) of adrenalectomised male Sprague-Dawley rats
- Sequence (P06536 whole entry): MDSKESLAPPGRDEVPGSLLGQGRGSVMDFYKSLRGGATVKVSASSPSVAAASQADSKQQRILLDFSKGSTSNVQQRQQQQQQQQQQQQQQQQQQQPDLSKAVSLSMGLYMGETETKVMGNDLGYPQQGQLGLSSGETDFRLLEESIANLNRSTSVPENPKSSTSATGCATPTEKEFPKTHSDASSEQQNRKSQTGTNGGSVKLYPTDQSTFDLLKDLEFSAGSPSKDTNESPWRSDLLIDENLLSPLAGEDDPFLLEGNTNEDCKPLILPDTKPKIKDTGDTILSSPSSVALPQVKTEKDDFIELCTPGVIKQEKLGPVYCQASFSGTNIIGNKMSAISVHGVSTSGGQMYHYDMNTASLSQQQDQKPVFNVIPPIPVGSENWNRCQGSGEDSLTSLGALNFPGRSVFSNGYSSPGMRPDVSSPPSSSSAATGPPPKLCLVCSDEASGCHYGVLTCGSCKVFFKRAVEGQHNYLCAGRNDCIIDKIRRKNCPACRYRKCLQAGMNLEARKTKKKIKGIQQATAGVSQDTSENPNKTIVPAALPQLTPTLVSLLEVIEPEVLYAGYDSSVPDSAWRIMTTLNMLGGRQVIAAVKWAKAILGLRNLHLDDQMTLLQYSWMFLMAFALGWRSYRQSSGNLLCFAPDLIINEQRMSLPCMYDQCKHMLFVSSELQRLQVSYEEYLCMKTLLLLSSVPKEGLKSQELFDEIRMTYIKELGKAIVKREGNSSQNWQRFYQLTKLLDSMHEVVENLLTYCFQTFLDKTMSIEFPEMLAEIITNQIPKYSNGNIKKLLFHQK
- Method summary: Relative affinity of the bond, glucocorticoid receptor (tritiated dexamethasone displacement)
- Assay type: binding
- Particulars: incubation 4 H at 0° C.; RAB=100(CH)/(CX)
Readout: Relative affinity of the bond (RAB), Glucocoticoid, 4 H

| Smiles notation | Assayed target | Reading |
| --- | --- | --- |
| CCCCN(C)C(=O)CCCCCCCCCC[C@H]1C[C@]2(C)[C@@H](O)CC[C@H]2[C@@H]2CCc3cc(O)ccc3[C@@H]12 | Glucocorticoid Receptor of Rat Thymus (Rattus norvegicus) | 7 |
| CN(C)CCN(C)C(=O)CCCCCCCCCC[C@H]1C[C@]2(C)[C@@H](O)CC[C@H]2[C@@H]2CCC3=CC(=O)CCC3=C12 | Glucocorticoid Receptor of Rat Thymus (Rattus norvegicus) | 6 |
| CC#C[C@]1(O)CC[C@H]2[C@@H]3CCC4=CC(=O)CCC4=C3[C@@H](CCCCCCCCCCC(=O)NCCCC)C[C@@]21C | Glucocorticoid Receptor of Rat Thymus (Rattus norvegicus) | 7 |

* * *

- Assayed target: Estrogenic Receptor of Mouse Uterus (Mus musculus, UniProt P19785)
- Construct: their uteri were removed, then homogenized at 0° C; from tissue; host or cells: uterine cytosol (105,000 g supernatant) of immature female mice
- Sequence (P19785 1-599): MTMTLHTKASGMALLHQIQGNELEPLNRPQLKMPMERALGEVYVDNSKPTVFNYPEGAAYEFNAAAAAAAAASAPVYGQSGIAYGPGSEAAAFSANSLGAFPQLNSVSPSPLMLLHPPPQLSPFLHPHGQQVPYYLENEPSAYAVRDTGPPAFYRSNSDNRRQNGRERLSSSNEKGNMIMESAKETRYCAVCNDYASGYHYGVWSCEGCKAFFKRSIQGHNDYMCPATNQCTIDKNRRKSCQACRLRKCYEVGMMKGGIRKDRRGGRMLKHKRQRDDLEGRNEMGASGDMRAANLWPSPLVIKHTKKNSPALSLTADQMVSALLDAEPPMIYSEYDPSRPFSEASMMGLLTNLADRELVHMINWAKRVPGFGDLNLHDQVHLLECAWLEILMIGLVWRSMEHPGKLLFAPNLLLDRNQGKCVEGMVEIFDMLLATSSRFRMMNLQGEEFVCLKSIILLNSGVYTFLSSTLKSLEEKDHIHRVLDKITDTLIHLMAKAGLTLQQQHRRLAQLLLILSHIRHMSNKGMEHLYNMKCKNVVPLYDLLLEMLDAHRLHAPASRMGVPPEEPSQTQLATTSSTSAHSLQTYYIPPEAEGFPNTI
- Method summary: Relative affinity of the bond, estrogen receptor (tritiated estradiol displacement)
- Assay type: binding
- Particulars: incubation 2 H at 0° C.; RAB=100(CH)/(CX)
- Procedure: Estrogenic Receptor of Mouse Uterus: Impuberal female mice aged from 18 to 21 days were killed and their uteri were removed, then homogenized at 0° C. with the aid of a Potter teflon-glass in a TS buffered solution (10 mM Tris, 0.25 M saccharose, HCL pH 7.4) (1 g of tissue for 25 ml of TS). […] The concentration (B) of bound tritiated estradiol was measured in each incubate by the technique of adsorption on dextran carbon. […] One determined the straight line of the equation [formula] […]
Readout: Relative affinity of the bond (RAB), Oestrogen, 2 H

Please review the entries below; each comes with its answer.
| Smiles notation | Assayed target | Reading |
| --- | --- | --- |
| CCCCN(C)C(=O)CCCCCCCOc1ccc([C@H]2C[C@]3(C)[C@@H](O)CC[C@H]3[C@@H]3CCc4cc(O)ccc4[C@H]32)cc1 | Estrogenic Receptor of Mouse Uterus (Mus musculus, UniProt P19785) | 0.3 |
| CCCCN(C)C(=O)CCCCCCCCCC[C@H]1C[C@]2(C)[C@@H](O)CC[C@H]2[C@@H]2CCc3cc(O)ccc3[C@@H]12 | Estrogenic Receptor of Mouse Uterus (Mus musculus, UniProt P19785) | 0.13 |
| C#C[C@]1(O)CC[C@H]2[C@@H]3CCc4cc(O)ccc4[C@H]3[C@@H](CCCCCCCCCCC(=O)N(C)C(C)C)C[C@@]21C | Estrogenic Receptor of Mouse Uterus (Mus musculus, UniProt P19785) | 1.2 |
| CCCCN(C)C(=O)COCCCCCC#Cc1ccc([C@H]2C[C@]3(C)[C@@H](O)CC[C@H]3[C@@H]3CCc4cc(O)ccc4[C@H]32)cc1 | Estrogenic Receptor of Mouse Uterus (Mus musculus, UniProt P19785) | 0.6 |
| CC(C)N(C)C(=O)CCCCCCCCCC[C@H]1C[C@]2(C)[C@@H](O)CC[C@H]2[C@@H]2CCc3cc(O)ccc3[C@@H]12 | Estrogenic Receptor of Mouse Uterus (Mus musculus, UniProt P19785) | 0.6 |
| CN(C)CCN(C)C(=O)CCCCCCCCCC[C@H]1C[C@]2(C)[C@@H](O)CC[C@H]2[C@@H]2CCC3=CC(=O)CCC3=C12 | Estrogenic Receptor of Mouse Uterus (Mus musculus, UniProt P19785) | 0.3 |
| CCCCN(C)C(=O)CCCCCC#Cc1ccc([C@H]2C[C@]3(C)[C@@H](O)CC[C@H]3[C@@H]3CCc4cc(O)ccc4[C@H]32)cc1 | Estrogenic Receptor of Mouse Uterus (Mus musculus, UniProt P19785) | 0.13 |

(A) CCCCN(C)C(=O)COCCCCCOc1ccc([C@H]2C[C@]3(C)[C@@H](O)CC[C@H]3[C@@H]3CCc4cc(O)ccc4[C@H]32)cc1
(B) CN(Cc1ccccc1)C(=O)CCCCCCCCCC[C@H]1C[C@]2(C)[C@@H](O)CC[C@H]2[C@@H]2CCC3=CC(=O)CCC3=C12
(C) CC(C)N(C)C(=O)COCCCCCCCC[C@H]1C[C@]2(C)[C@@H](O)CC[C@H]2[C@@H]2CCc3cc(O)ccc3[C@@H]12
(D) CCCCN(C)C(=O)CCCCCCCCCCC[C@H]1C[C@]2(C)[C@@H](O)CC[C@H]2[C@@H]2CCc3cc(O)ccc3[C@@H]12
(E) CC#C[C@]1(O)CC[C@H]2[C@@H]3CCC4=CC(=O)CCC4=C3[C@@H](CCCCCCCCCCC(=O)NCCCC)C[C@@]21C
Endpoint returns the given compounds ordered by ascending Relative affinity of the bond (RAB), Oestrogen, 2 H. Answer by listing the labels in the requested order.
E, D, B, C, A
